// Ki lookup, one value per entry
Target: 5-hydroxytryptamine receptor 1B (Homo sapiens)
Sequence (P28222 whole entry): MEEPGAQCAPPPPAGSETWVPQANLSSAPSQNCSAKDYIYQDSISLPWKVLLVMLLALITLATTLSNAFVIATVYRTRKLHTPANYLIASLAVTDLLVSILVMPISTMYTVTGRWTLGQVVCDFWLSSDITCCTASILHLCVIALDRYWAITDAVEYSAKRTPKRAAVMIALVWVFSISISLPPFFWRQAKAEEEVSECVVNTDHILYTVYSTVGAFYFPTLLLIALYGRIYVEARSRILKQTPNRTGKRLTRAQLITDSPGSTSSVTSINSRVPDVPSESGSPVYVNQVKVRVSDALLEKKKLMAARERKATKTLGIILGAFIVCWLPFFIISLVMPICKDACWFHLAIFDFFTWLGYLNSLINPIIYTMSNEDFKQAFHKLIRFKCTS

# compound, uom, qualifying.sign, Ki
data = [
    ("CC(C)(C)NCC(O)COc1cccc2[nH]c(C#N)cc12 (stereo not drawn)", "nM", "=", 22),
    ("COc1ccc2[nH]cc(C3=CCNCC3)c2c1", "nM", "=", 12.4),
    ("CN1CC(C(=O)N[C@]2(C)O[C@@]3(O)C4CCCN4C(=O)[C@H](Cc4ccccc4)N3C2=O)CC2c3cccc4[nH]cc(c34)CC21 (stereo partly drawn)", "nM", "=", 0.006),
    ("FC(F)(F)c1cccc(N2CCNCC2)c1", "nM", "=", 28),
    ("O=C(CCCN1CCC2(CC1)C(=O)NCN2c1ccccc1)c1ccc(F)cc1", "nM", ">", 10000),
    ("CN1C[C@@H](NS(=O)(=O)N(C)C)C[C@@H]2c3cccc4c3c(cn4C)C[C@H]21", "nM", "=", 640),
    ("Clc1cccc(N2CCNCC2)c1", "nM", "=", 90),
    ("Cc1cc(C(C)(C)C)c(O)c(C)c1CC1=NCCN1", "nM", "=", 0.26),
]

Reference source: BindingDB's records for doi:10.1016/0006-291x(92)90654-4
